Where do these numbers come from? They come from patent USRE47150.

- experimental_system: T1, mouse tissue factor pathway inhibitor (TFPI) (mouse, UniProt O54819 29-289, limits assumed)
- T1 construct: bought; also called mTFPI; murine TFPI
- T1 sequence (looked up): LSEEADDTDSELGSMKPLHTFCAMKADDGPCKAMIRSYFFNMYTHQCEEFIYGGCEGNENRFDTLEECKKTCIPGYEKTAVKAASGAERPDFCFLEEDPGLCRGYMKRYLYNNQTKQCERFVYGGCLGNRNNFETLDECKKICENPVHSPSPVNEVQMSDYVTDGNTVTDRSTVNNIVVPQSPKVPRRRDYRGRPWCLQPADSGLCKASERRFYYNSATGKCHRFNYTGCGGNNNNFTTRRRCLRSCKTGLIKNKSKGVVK
- assay_method_text: competitive ELISA
observable: variant/HC_D62R (ratio)
Answers are plain numbers, in ratio.

Past entries and their recorded results:
>>> reading("4B7 HC D62R+Y112D/LC S32R+D33F+N35I (Fab, V domains shown) VH: QVQLQQSGPGLVKPSQTLSLTCAISGDSVSSNSAAWSWIRQSPGRGLEWLGIIYKRSKWYNRYAVSVKSRITINPDTSKNQFSLQLNSVTPEDTAVYYCARWHSDKHWGFDDWGQGTLVTVSS VL: DIVMTQSPLSLPVTPGEPASISCRSSQSLVFRFGITYLNWYLQKPGQSPQLLIYKGSNRASGVPDRFSGSGSGTDFTLKISRVEAEDVGVYYCQQYDSYPLTFGQGTKVEIKR")
39.9
>>> reading("4B7 HC Q1E+N32D+G44S+K55Y+D62R+Y112D/LC V30L+S32R+D33F+N35I+T36N+D97T (Fab, V domains shown) VH: EVQLQQSGPGLVKPSQTLSLTCAISGDSVSSDSAAWSWIRQSPSRGLEWLGIIYYRSKWYNRYAVSVKSRITINPDTSKNQFSLQLNSVTPEDTAVYYCARWHSDKHWGFDDWGQGTLVTVSS VL: DIVMTQSPLSLPVTPGEPASISCRSSQSLLFRFGINYLNWYLQKPGQSPQLLIYKGSNRASGVPDRFSGSGSGTDFTLKISRVEAEDVGVYYCQQYTSYPLTFGQGTKVEIKR")
29.4

Turning to the following binder.
Please fill in: variant/HC_D62R reported for 4B7 HC N32D+I53T+D62R+Y112D/LC S32R+D33F+N35I+D97T (Fab, V domains shown) VH: QVQLQQSGPGLVKPSQTLSLTCAISGDSVSSDSAAWSWIRQSPGRGLEWLGITYKRSKWYNRYAVSVKSRITINPDTSKNQFSLQLNSVTPEDTAVYYCARWHSDKHWGFDDWGQGTLVTVSS VL: DIVMTQSPLSLPVTPGEPASISCRSSQSLVFRFGITYLNWYLQKPGQSPQLLIYKGSNRASGVPDRFSGSGSGTDFTLKISRVEAEDVGVYYCQQYTSYPLTFGQGTKVEIKR = 8.3
